test system: DMS-273; assay: NCI tumour cell line growth inhibition, 48 h
Activity calls are given as the source filed them. No stated cut-off is given here; in the data, active = GI50 up to about 1.1 µM and inactive = higher.
readout-type: GI50

Enquiry: Find the measured GI50 of C/C(CC(=O)Nc1ccc(NC(=O)C/C(C)=N\NC(N)=O)cc1)=N/NC(N)=O and report it.
Return: > 37.1 µM (inactive)

Enquiry: Find the measured GI50 of O=C(O)C(C(=O)C(=O)C(C(=O)O)c1ccc(Cl)cc1)c1ccc(Cl)cc1 (configuration not stated) and report it.
Return: 3.64 µM (inactive)

Enquiry: Find the measured GI50 of COc1cc(NC(C)CCCN)c2ncccc2c1 (configuration not stated) [PRIMAQUINE PHOSPHATE] and report it.
Return: > 100 µM (inactive)

Enquiry: Find the measured GI50 of CCCCCCCCCCCCCC(=O)CC(=O)c1c(O)cccc1O and report it.
Return: 22.1 µM (inactive)

Enquiry: Find the measured GI50 of COc1cccc2c1OC1Sc3ccccc3-c3nn(-c4ccccc4)c-2c31 (configuration not stated) and report it.
Return: > 100 µM (inactive)

Enquiry: Find the measured GI50 of Cc1ccc(NC(=O)CC2SC(Nc3ccc(Cl)cc3)=NC2=O)cc1C (configuration not stated) and report it.
Return: 19.7 µM (inactive)

Enquiry: Find the measured GI50 of CC1=C(c2cc(C(=O)Nc3nccs3)nc(NC#N)n2)Sc2ccccc2N1 and report it.
Return: > 100 µM (inactive)

Enquiry: Find the measured GI50 of CCOC(=O)c1cc(/C=C/C(C)=C/C(=O)OC)n(C)c1C and report it.
Return: > 100 µM (inactive)

Enquiry: Find the measured GI50 of Cc1c2cnccc2c(C)c2c1c1ccccc1n2CCOC(=O)c1ccccc1 and report it.
Return: 4.86 µM (inactive)

Enquiry: Find the measured GI50 of Cc1cc(Cl)cc2c1NC(=O)C2(O)C(C(=O)c1ccccc1)c1ccccc1 (configuration not stated) and report it.
Return: 55.8 µM (inactive)

Enquiry: Find the measured GI50 of c1c2c(cc(-n3nnc4c3CCCCCC4)c1-n1nnc3c1CCCCCC3)CCCCCC2 and report it.
Return: 2.99 µM (inactive)

Enquiry: Find the measured GI50 of O=C(Cc1ccccc1)NN1C(=O)C(Cl)C1c1ccc([N+](=O)[O-])cc1 (configuration not stated) and report it.
Return: > 100 µM (inactive)

Numbers sourced from ChEMBL document CHEMBL1201862.
